study.target: T1, CIN85 SH3C domain (human, UniProt Q96B97-1 262-333)
T1 construct: the NMR structure PDB 2k9g of SH3C was used to map the shifts; 15N-labelled for NMR; The limits of PDB 2k9g may differ from those of the construct; also called C-terminal SH3 domain
T1 sequence: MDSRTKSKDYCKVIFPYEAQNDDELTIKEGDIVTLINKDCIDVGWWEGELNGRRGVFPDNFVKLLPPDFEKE
experiment.description: NMR titration; 15N-labelled isolated SH3 domain titrated with synthetic 14-residue peptide; chemical shift perturbations; KD fitted, error by bootstrap resampling
condition.summary: both partners purified
Where no end group is shown, it is not given here. [ ]: non-standard residue; d: D form. pS = N[C@@H](COP(=O)(O)O)C(=O)O
Listing: Kd of selected binders
// units = µM; emit number, no label

These recorded examples may help you get a feel for the data.
So for FKDKPIKLRPASIE (CIN85, human, residues 219-232 with R229A; also called R229A mutant peptide; source: synthetic peptide) [CIN85-PRM1 peptide R229A (residues 219-232)] , the logged Kd turned out to be 2450

# Kd of FKDKPIKLAPRSIE (CIN85, human, residues 219-232 with R227A; also called R227A mutant peptide; source: synthetic peptide) [CIN85-PRM1 peptide R227A (residues 219-232)] = 750

Lookup result for FKDKPIKLRPRSIE (CIN85, human, residues 219-232 of the linker between SH3B and SH3C, holding the proline-rich motif CIN85-PRM1; also called wild-type CIN85-PRM1 peptide; source: synthetic peptide) [CIN85-PRM1 peptide, wild type (residues 219-232)] ; measured Kd: 210

Others:
Lookup result for FKDKPIKLRPR[pS]IE (CIN85, human, residues 219-232 with phosphoserine at S230; also called pS230 peptide; source: synthetic peptide) [CIN85-PRM1 peptide pS230 (residues 219-232)] ; measured Kd: 2350

Entry FKDKPIKLRPRDIE (CIN85, human, residues 219-232 with the phosphomimetic S230D; also called S230D peptide; source: synthetic peptide) [CIN85-PRM1 peptide S230D (residues 219-232)] , Kd reported as 710

For this binder ( FKDKPIKLRPRAIE (CIN85, human, residues 219-232 with S230A; also called S230A peptide; source: synthetic peptide) [CIN85-PRM1 peptide S230A (residues 219-232)] ), measured Kd is 200
